Biological target: human glucagon receptor (human) (UniProt P47871)
Sequence (P47871 26-477): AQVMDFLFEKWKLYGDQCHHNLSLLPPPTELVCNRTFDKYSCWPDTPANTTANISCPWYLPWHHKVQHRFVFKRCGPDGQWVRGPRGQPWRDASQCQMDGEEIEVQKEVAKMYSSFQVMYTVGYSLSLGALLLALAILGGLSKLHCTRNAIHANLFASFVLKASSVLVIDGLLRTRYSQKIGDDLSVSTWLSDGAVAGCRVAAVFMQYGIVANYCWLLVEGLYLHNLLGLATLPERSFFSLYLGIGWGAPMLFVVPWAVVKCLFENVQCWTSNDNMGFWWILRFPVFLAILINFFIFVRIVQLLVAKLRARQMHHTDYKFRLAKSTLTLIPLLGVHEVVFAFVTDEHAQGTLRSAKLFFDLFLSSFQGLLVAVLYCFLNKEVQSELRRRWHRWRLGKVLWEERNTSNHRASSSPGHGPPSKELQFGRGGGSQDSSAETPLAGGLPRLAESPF
Experiment: cell-based or functional assay
Quantity Measured: cAMP Rel EC50, nM (in the presence of 1% HSA)
Field note: include the unit after the figure.

Consider the following illustrative entries.
Binder	Assay Result
YXQGTFTSDFSXXLDKKAQXAFIEYLLEGGPSSGAPPPGGE (synthetic construct; SITE 2: note = 2-Aminoisobutyric Acid; SITE 12: note = L-ornithine; SITE 13: note = alpha-methyl-leucine; SITE 17: note = Lysine is chemically modified through conjugation of the epsilon-amino group of the Lysine side chain with (2-[2-(2-Amino-ethoxy)-ethoxy]-acetyl)-(gamma-Glu)) [Example 63]	709 nM
YXQGTFTSDFSXXLDKKAQXAFIEWLLEGGESSGAPPPEGS (synthetic construct; SITE 2: note = 2-Aminoisobutyric Acid; SITE 12: note = L-ornithine; SITE 13: note = alpha-methyl-leucine; SITE 17: note = Lysine is chemically modified through conjugation of the epsilon-amino group of the Lysine side chain with (2-[2-(2-Amino-ethoxy)-ethoxy]-acetyl)-(gamma-Glu)) [Example 125]	901 nM
YXQGTFTSDFSXXLDKKAQXAFIEYLLEGGPSSGAPPPGGSX (synthetic construct; SITE 2: note = 2-Aminoisobutyric Acid; SITE 12: note = L-ornithine; SITE 13: note = alpha-methyl-leucine; SITE 17: note = Lysine is chemically modified through conjugation of the epsilon-amino group of the Lysine side chain with (2-[2-(2-Amino-ethoxy)-ethoxy]-acetyl)-(gamma-Glu)) [Example 66]	415 nM
YXQGTFTSDFSXXLDKKAQXAFIEYLLEGGPSSGAPPPSEG (synthetic construct; SITE 2: note = 2-Aminoisobutyric Acid; SITE 12: note = L-ornithine; SITE 13: note = alpha-methyl-leucine; SITE 17: note = Lysine is chemically modified through conjugation of the epsilon-amino group of the Lysine side chain with (2-[2-(2-Amino-ethoxy)-ethoxy]-acetyl)-(gamma-Glu)) [Example 50]	1040 nM
YXQGTFTSDFSXXLDKKAQXAFIEWLLEGGESSGEPPPSGE (synthetic construct; SITE 2: note = 2-Aminoisobutyric Acid; SITE 12: note = L-ornithine; SITE 13: note = alpha-methyl-leucine; SITE 17: note = Lysine is chemically modified through conjugation of the epsilon-amino group of the Lysine side chain with (2-[2-(2-Amino-ethoxy)-ethoxy]-acetyl)-(gamma-Glu)) [Example 123]	1740 nM

Now for another entry.
For YXQGTFTSDFSXXLDKKAQXAFIEWLLEGGHSSGEPPPEGS (synthetic construct; SITE 2: note = 2-Aminoisobutyric Acid; SITE 12: note = L-ornithine; SITE 13: note = alpha-methyl-leucine; SITE 17: note = Lysine is chemically modified through conjugation of the epsilon-amino group of the Lysine side chain with (2-[2-(2-Amino-ethoxy)-ethoxy]-acetyl)-(gamma-Glu)) [Example 127] , write its cAMP Rel EC50, nM (in the presence of 1% HSA).
1010 nM
